Ref: patent US20190119389A1

- TESTED TARGET: T1, Cyno NRP-1 His (cynomolgus monkey, UniProt O14786 22-856 (human entry), limits assumed)
- T1 construct: Recombinant monomeric protein; also called cynomolgus monkey NRP-1-His; cNRP-1; not shown: His tag
- T1 chain: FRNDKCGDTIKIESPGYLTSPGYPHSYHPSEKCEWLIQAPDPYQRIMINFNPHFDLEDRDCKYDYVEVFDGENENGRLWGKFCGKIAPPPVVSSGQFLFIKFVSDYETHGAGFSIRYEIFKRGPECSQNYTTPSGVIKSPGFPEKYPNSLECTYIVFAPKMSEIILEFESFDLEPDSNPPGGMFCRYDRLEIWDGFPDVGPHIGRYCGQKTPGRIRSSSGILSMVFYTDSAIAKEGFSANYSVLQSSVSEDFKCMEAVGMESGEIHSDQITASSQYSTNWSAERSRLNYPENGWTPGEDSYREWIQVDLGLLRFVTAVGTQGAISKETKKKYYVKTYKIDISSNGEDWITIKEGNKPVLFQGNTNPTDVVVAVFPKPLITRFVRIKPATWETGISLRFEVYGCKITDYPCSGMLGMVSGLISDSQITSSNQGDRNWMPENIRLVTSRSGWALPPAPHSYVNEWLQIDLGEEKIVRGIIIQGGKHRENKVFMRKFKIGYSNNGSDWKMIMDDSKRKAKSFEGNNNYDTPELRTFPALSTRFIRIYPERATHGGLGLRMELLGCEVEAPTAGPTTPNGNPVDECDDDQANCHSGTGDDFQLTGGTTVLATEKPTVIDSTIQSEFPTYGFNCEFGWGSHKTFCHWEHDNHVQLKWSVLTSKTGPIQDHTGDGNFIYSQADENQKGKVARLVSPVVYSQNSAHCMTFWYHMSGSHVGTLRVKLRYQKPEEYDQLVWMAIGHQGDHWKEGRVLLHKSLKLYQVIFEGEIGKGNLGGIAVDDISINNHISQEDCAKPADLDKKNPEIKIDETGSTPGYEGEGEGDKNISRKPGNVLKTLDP
- ASSAY METHOD TEXT: BLI ForteBio, IgG1 N297A on AHQ sensor, 100 nM monomeric antigen, 1:1 fit
ASSAY ENDPOINT: pKd
Keep in mind that pKd stands for -log10 of concentration in molar terms.

Exercise: What measured pKd goes with MAB8 (antibody, V domains shown) VH: EVQLLESGGGLVQPGGSLRLSCAASGFTFASYAMVWVRQAPGKGLEWVSIISGSGGSTYYADSVKGRFTISRDNSKNTLYLQMNSLRAEDTAVYYCAKDPGYDSSRYYYSNYGMDVWGQGTTVTVSS VL: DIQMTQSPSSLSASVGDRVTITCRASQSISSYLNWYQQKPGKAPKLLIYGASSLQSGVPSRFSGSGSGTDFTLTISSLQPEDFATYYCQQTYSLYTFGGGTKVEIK ?
Solution: 9.19
